Data origin: paper PMC6651170

So I've got a bunch of compounds here, and I need their CC50 values.
# Assay Explanation: in vitro
# Condition Label: African green monkey, CC50 (Herpes Simplex Virus Type 1)
Unit µM implied. Number only.

Which CC50 value belongs to O=c1ccn(C[C@@H]2[C@@H]3C[C@H](Cl)[C@H]2C[C@H]3O)c(=O)[nH]1 [Compound 4b] ?
1110

Subsequent entry: OC1C[C@H]2[C@H](Cn3cnc4c(NC5CCCC5)ncnc43)[C@@H]1C[C@@H]2Cl (stereo partly shown) [Compound 6c]
605

Same again, this time with OC1C[C@H]2[C@H](Cn3cnc4c(NCCc5ccccc5)ncnc43)[C@@H]1C[C@@H]2Cl (stereo partly shown) [Compound 6k]
185

Then what about the compound Nc1ncnc2c1ncn2C[C@H]1[C@@H]2CC(O)[C@H]1C[C@@H]2Cl (stereo partly shown) [Compound 6a] ?
975
